- System: Streptococcus pneumoniae
- EXPERIMENT_DESCRIPTION: Minimum inhibitory concentration against Streptococcus pneumoniae L 44
- Assay type: functional
MEASURED_PROPERTY: MIC (µg/mL)
Number in µg/mL, nothing else.

Answered cases to consult:
[
  {
    "SMILES_STRUCTURE": "CC(=O)N[C@@H]1[C@H](O[C@@H]2c3ccc(c(Cl)c3)Oc3cc4cc(c3O[C@@H]3O[C@@H](CO)[C@@H](O)[C@H](O)[C@@H]3NC(=O)CCCCCCC(C)C)Oc3ccc(cc3Cl)C[C@H]3NC(=O)[C@H](N)c5ccc(O)c(c5)Oc5cc(O)cc(c5)[C@H](NC3=O)C(=O)N[C@H]4C(=O)N[C@H]3C(=O)N[C@@H]2C(=O)N[C@H](C(=O)NCCCNCCCCN)c2cc(O)cc(O[C@H]4O[C@H](CO)[C@@H](O)[C@@H](O)[C@@H]4O)c2-c2cc3ccc2O)O[C@@H](CO)[C@@H](O)[C@@H]1O",
    "MIC (µg/mL)": 0.125
  },
  {
    "SMILES_STRUCTURE": "NCCCN(CCCN)CCCNC(=O)[C@H]1NC(=O)[C@H]2NC(=O)[C@H](NC(=O)[C@@H]3NC(=O)[C@H]4NC(=O)[C@@H](Cc5ccc(c(Cl)c5)Oc5cc3cc(c5O)Oc3ccc(cc3Cl)[C@H]2O)NC(=O)[C@H](N)c2ccc(O)c(c2)Oc2cc(O)cc4c2)c2ccc(O)c(c2)-c2c(O)cc(O)cc21",
    "MIC (µg/mL)": 0.125
  }
]

## Input // query MIC value for entry "NCCNCCCNCCNC(=O)[C@H]1NC(=O)[C@H]2NC(=O)[C@H](NC(=O)[C@@H]3NC(=O)[C@H]4NC(=O)[C@@H](Cc5ccc(c(Cl)c5)Oc5cc3cc(c5O)Oc3ccc(cc3Cl)[C@H]2O)NC(=O)[C@H](N)c2ccc(O)c(c2)Oc2cc(O)cc4c2)c2ccc(O)c(c2)-c2c(O)cc(O)cc21"
## Output 0.125
